Where do the numbers come from? From patent US10138260B2.

- ASSAYED_SYSTEM: TAFIa (Homo sapiens)
- ASSAY_SUMMARY: Inhibition of TAFIa (hippuryl-Arg test)
- Type: biochemical
- TEST_PARAMETERS: compound at 20 nM; TAFIa 2 nM, hippuryl-arginine 5 mM, 45 minutes; relative to control containing the carrier
# inhibition at 0.02 µM annotations
MEASURED_ATTRIBUTE: inhibition at 0.02 µM

> print(dat)
                                   molecule     measured.attribute  reported.result
1  NCCCC[C@@]1(C(=O)O)CN(Cc2ccc(Cl)cc2-c2ccc(Cl)cc2)CCP1(=O)O [Example 195]  inhibition at 0.02 µM              87%
2  COc1ccc(-c2cc(O)ccc2CN2CCP(=O)(O)[C@](CCCCN)(C(=O)O)C2)cn1 [Example 242]  inhibition at 0.02 µM              88%
3  Cc1ccc(-c2ccccc2CN2CCP(=O)(O)[C@](CCCCN)(C(=O)O)C2)cc1 [Example 188]  inhibition at 0.02 µM              86%
4  NCCCCC1(C(=O)O)CN(Cc2ccsc2-c2ccccc2)CCP1(=O)O (centres unmarked) [Example 105]  inhibition at 0.02 µM              66%
5  NCCCC[C@@]1(C(=O)O)CN(Cc2ccccc2-c2cncnc2)CCP1(=O)O [Example 182]  inhibition at 0.02 µM              95%
6  Cc1ccc(-c2cc(Cl)ccc2CN2CCP(=O)(O)[C@](CCCCN)(C(=O)O)C2)cc1 [Example 218]  inhibition at 0.02 µM              83%
7  Cc1ncc(-c2cc(O)ccc2CN2CCP(=O)(O)[C@](CCCCN)(C(=O)O)C2)n1C [Example 249]  inhibition at 0.02 µM              94%
8  NCCCCC1(C(=O)O)CN(Cc2ccccc2-c2ccc3c(c2)OCO3)CCP1(=O)O (centres unmarked) [Example 164]  inhibition at 0.02 µM              87%

---

- ASSAYED_SYSTEM: TAFIa (Homo sapiens)
- ASSAY_SUMMARY: Inhibition of TAFIa (hippuryl-Arg test)
- Type: biochemical
- TEST_PARAMETERS: compound at 20 nM; TAFIa 2 nM, hippuryl-arginine 5 mM, 45 minutes; relative to control containing the carrier
MEASURED_ATTRIBUTE: inhibition at 0.02 µM (%)

> print(dat)
                                   compound        assayed.system  reported.result
1  NCCCC[C@@]1(C(=O)O)CN(Cc2ccccc2-c2cc[nH]c(=O)c2)CCP1(=O)O [Example 204]  TAFIa (Homo sapiens)               86
2  COc1cccc(-c2ccccc2CN2CCP(=O)(O)[C@](CCCCN)(C(=O)O)C2)c1OC [Example 207]  TAFIa (Homo sapiens)               85
3  NCCCC[C@@]1(C(=O)O)CN(Cc2ccc(O)cc2-c2ccc(F)cc2)CCP1(=O)O [Example 228]  TAFIa (Homo sapiens)               82
4  NCCCCC1(C(=O)O)CN(Cc2ccccc2-c2ccc(=O)[nH]c2)CCP1(=O)O (centres unmarked) [Example 166]  TAFIa (Homo sapiens)               93
5  NCCCC[C@@]1(C(=O)O)CN(Cc2ccc(F)cc2-c2cccc(O)c2)CCP1(=O)O [Example 238]  TAFIa (Homo sapiens)               87
6  NCCCCC1(C(=O)O)CN(Cc2ccccc2-c2ccccc2-c2ccccc2)CCP1(=O)O (centres unmarked) [Example 114]  TAFIa (Homo sapiens)               51
7  COc1cc(-c2cc(F)ccc2CN2CCP(=O)(O)[C@](CCCCN)(C(=O)O)C2)ccc1F [Example 201]  TAFIa (Homo sapiens)               84
8  COc1cc(-c2cc(F)ccc2CN2CCP(=O)(O)[C@](CCCCN)(C(=O)O)C2)ccn1 [Example 221]  TAFIa (Homo sapiens)               88

---

# inhibition at 0.01 µM annotations
- ASSAYED_SYSTEM: TAFIa (Homo sapiens)
- ASSAY_SUMMARY: Inhibition of TAFIa (hippuryl-Arg test)
- Format: biochemical
- TEST_PARAMETERS: compound at 10 nM; TAFIa 2 nM, hippuryl-arginine 5 mM, 45 minutes; relative to control containing the carrier
MEASURED_ATTRIBUTE: inhibition at 0.01 µM (%)

> print(dat)
                                   compound  reported.result
1  NCCCC[C@@]1(C(=O)O)CN(Cc2ccccc2-c2cccc3ccccc23)CCP1(=O)O               54
2  NCCCCC1(C(=O)O)CN(Cc2ccccc2-c2ccc3ccccc3c2)CCP1(=O)O (stereo not shown)               53
3  COc1cc(-c2cc(F)ccc2CN2CCP(=O)(O)[C@](CCCCN)(C(=O)O)C2)ccn1               75
4  NCCCC[C@@]1(C(=O)O)CN(Cc2ccc(O)cc2-c2cnc3ccccn23)CCP1(=O)O               86

---

- ASSAYED_SYSTEM: TAFIa (Homo sapiens)
- ASSAY_SUMMARY: Inhibition of TAFIa (hippuryl-Arg test)
- Format: biochemical
- TEST_PARAMETERS: compound at 10 nM; TAFIa 2 nM, hippuryl-arginine 5 mM, 45 minutes; relative to control containing the carrier
Label true when inhibition at 0.01 µM is at or above 70%; otherwise label false.

> print(dat)
                                   compound        assayed.system  qualitative.label
1  COc1ccc(-c2cc(F)ccc2CN2CCP(=O)(O)[C@](CCCCN)(C(=O)O)C2)cc1  TAFIa (Homo sapiens)               true
2  NCCCCC1(C(=O)O)CN(Cc2ccccc2-c2cccc3ccccc23)CCP1(=O)O (centres unmarked)  TAFIa (Homo sapiens)              false
3  NCCCC[C@@]1(C(=O)O)CN(Cc2ccc(F)cc2-c2cccs2)CCP1(=O)O  TAFIa (Homo sapiens)               true
4  NCCCCC1(C(=O)O)CN(Cc2ccccc2-c2ccc3c(c2)OCO3)CCP1(=O)O (centres unmarked)  TAFIa (Homo sapiens)              false
5  COc1ccc(-c2cc(F)ccc2CN2CCP(=O)(O)[C@](CCCCN)(C(=O)O)C2)cn1  TAFIa (Homo sapiens)               true
6  NCCCCC1(C(=O)O)CN(Cc2ccccc2-c2cc(Cl)ccc2Cl)CCP1(=O)O (centres unmarked)  TAFIa (Homo sapiens)              false
7  NCCCC[C@@]1(C(=O)O)CN(Cc2ccc(O)cc2-c2ccc(F)cc2)CCP1(=O)O  TAFIa (Homo sapiens)              false
8  COc1ccc(-c2ccccc2CN2CCP(=O)(O)[C@](CCCCN)(C(=O)O)C2)cn1  TAFIa (Homo sapiens)               true

---

- ASSAYED_SYSTEM: TAFIa (Homo sapiens, UniProt Q96IY4)
- Sequence (Q96IY4 115-423): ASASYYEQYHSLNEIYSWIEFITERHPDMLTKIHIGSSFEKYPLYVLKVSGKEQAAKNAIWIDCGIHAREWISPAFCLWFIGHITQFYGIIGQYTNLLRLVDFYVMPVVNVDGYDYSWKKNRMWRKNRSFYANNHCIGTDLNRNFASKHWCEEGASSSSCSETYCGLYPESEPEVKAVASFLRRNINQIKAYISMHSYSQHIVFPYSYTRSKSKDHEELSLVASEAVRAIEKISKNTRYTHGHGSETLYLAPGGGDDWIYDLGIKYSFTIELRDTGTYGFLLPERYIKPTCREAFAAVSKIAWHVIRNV
- ASSAY_SUMMARY: Inhibition of TAFIa (hippuryl-Arg test)
- Format: biochemical
- TEST_PARAMETERS: compound at 10 nM; TAFIa 2 nM, hippuryl-arginine 5 mM, 45 minutes; relative to control containing the carrier
- Method: Human TAFI (4 nM) is incubated with human thrombin (10 nM) and human thrombomodulin (5 nM) in the presence of calcium (10 mM). […] The test compound is added to the solution of TAFIa (2 nM) and incubated for 45 minutes in the presence of hippuryl-arginine (5 mM). […] The supernatant is transferred to a 96-well microplate, and the absorbance is measured using a spectrophotometer at 405 nm (Spectramax plus, Molecular Devices). […]
# inhibition at 0.01 µM annotations
MEASURED_ATTRIBUTE: inhibition at 0.01 µM (%)

> print(dat)
                                   molecule     measured.attribute  reported.result
1  NCCCC[C@@]1(C(=O)O)CN(Cc2ccccc2-c2ccncc2)CCP1(=O)O  inhibition at 0.01 µM               76
2  NCCCC[C@@]1(C(=O)O)CN(Cc2ccc(F)cc2-c2cc[nH]c(=O)c2)CCP1(=O)O  inhibition at 0.01 µM               73
3  NCCCC[C@@]1(C(=O)O)CN(Cc2ccccc2-c2cccnc2)CCP1(=O)O  inhibition at 0.01 µM               67
4  CC(C)(C)c1ccccc1CN1CCP(=O)(O)[C@](CCCCN)(C(=O)O)C1  inhibition at 0.01 µM               28
5  NCCCCC1(C(=O)O)CN(Cc2ccccc2-c2cccc(-c3ccccc3)c2)CCP1(=O)O (centres unmarked)  inhibition at 0.01 µM               60
6  COc1ccc(-c2ccccc2CN2CCP(=O)(O)C(CCCCN)(C(=O)O)C2)cn1 (centres unmarked)  inhibition at 0.01 µM               76
7  Cn1nccc1-c1ccccc1CN1CCP(=O)(O)[C@](CCCCN)(C(=O)O)C1  inhibition at 0.01 µM               60
8  NCCCC[C@@]1(C(=O)O)CN(Cc2ccc(F)cc2-c2ccc(Cl)cc2)CCP1(=O)O  inhibition at 0.01 µM               72
